// data source = patent US20240336909

Target: AxCT mask27 EGFR EH104 L059 version 1
readoutName: Percent cleavage (%)
Quick note: give the figure in %, leave out the unit.

Measured Percent cleavage of MMP-1 (protein) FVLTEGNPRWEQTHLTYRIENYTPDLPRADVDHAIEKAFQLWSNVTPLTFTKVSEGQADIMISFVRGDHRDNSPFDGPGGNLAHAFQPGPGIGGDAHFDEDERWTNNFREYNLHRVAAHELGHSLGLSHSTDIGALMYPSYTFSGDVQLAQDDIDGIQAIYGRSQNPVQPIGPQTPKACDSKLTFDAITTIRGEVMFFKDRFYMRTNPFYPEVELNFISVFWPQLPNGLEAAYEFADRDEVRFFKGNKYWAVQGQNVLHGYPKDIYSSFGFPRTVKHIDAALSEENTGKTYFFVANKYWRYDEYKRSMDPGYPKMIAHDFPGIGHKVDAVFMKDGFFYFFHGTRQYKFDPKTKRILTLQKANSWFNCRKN : 0
